System: KM12
Test: NCI tumour cell line growth inhibition, 48 h
Calls of active or inactive are those of the source. Rule as the data show it: active = GI50 up to about 1.1 µM and inactive = higher.
Mark one answer only. Choices: active, inactive

1. CCCCCCCCCCCCC/C=C(/COCC[N+](C)(C)C)OC(C)=O.CCCCCCCCCCCCCC/C(=C/OCC[N+](C)(C)C)OC(C)=O ... inactive
2. O=C1CN(c2cccc(Cl)c2)C(=O)CN1CCN1CC(=O)N(c2cccc(Cl)c2)CC1=O ... inactive
3. O=NN1C(c2ccccc2)CNC(=O)CC1c1ccccc1 (stereo not drawn) ... inactive
4. CC12O[C@]3([C@H](C(=O)N4CCOC43C)[C@H]1Cl)[C@H]1O[C@H]12 (stereo partly drawn) ... inactive
5. CC1=C(C#N)C(=O)CC(c2ccc(Cl)cc2)N(C)N1 (stereo not drawn) ... inactive

Status in this test for `CC(C)CNC(=O)c1c(NC(=O)c2ccccc2)sc2[nH]c(=O)n(-c3ccccc3)c(=O)c12` ? inactive

Status in this test for `CC(C)(C)CC(C)(C)N/C(N)=N/O` ? inactive

Status in this test for Cc1ccc(NC(=O)/C(CC2Nc3c(ccc4c3C(=O)c3ccccc3C4=O)NC2O)=N/NC(C)(C)C)cc1 (stereo not drawn) ? inactive

Status in this test for `COc1ccc(-c2c3c(nc4nc(SC)nc(SC)c24)CCCC3)cc1OC` ? inactive

Status in this test for CCc1ccc(Cc2ccc(CC)c(NC(=O)C(=O)C3NC(=S)NC3=O)c2CC)c(CC)c1NC(=O)C(=O)C1NC(=S)NC1=O (stereo not drawn) ? inactive

Status in this test for `CC(C)(C)OC(=O)N1[C@@H]2Cc3ccc(N)cc3[C@@]1(C)c1ccccc12` ? inactive

Status in this test for `O=C(Nc1ccccc1)OCc1nc2c([nH]1)C(=O)C=CC2=O` ? inactive

Status in this test for `C/C(=N\NC(=S)N(C)C)c1ncc[nH]1` ? inactive

Status in this test for `CCN(CC)CCSc1c2ccccc2nc2c(OC)ccc(OC)c12` ? inactive

Status in this test for `Cc1cc(NS(=O)(=O)c2ccc(NC(=O)c3cccc4c(Nc5ccc(S(=O)(=O)N=C(N)N)cc5)c5ccccc5nc34)cc2)no1` ? inactive
